Data provenance: the array DNA melting data of Ke et al.

Listed here are substances together with their documented Tm.
- experimentalProtocol: melting temperature; melt of duplexes
- testContext: sodium 0.0675 M; strand 1 µM

>  <substance>
CGACGTGCCAGATGTGCTG+CAGCACATCGGGCACGTCG (((((((((.(((((((((+))))))))).)))))))))

>  <Tm [°C]>
62.2

$$$$
>  <substance>
CGACGTGCTGCATGTGCTG+CAGCACATACGGCACGTCG ((((((((.(.((((((((+)))))))).).))))))))

>  <Tm [°C]>
53.6

$$$$
>  <substance>
CGACGTGCTGCATGTGCTG+CAGCACATTTAGCACGTCG (((((((((..((((((((+))))))))..)))))))))

>  <Tm [°C]>
51

$$$$
>  <substance>
CGACGTGCACAATGTGCTG+CAGCACATGACGCACGTCG ((((((((...((((((((+))))))))...))))))))

>  <Tm [°C]>
48.2

$$$$
>  <substance>
CGACGTGCAGGATGTGCTG+CAGCACATCCTGCACGTCG (((((((((((((((((((+)))))))))))))))))))

>  <Tm [°C]>
66

$$$$
>  <substance>
CGACGTGCATGATGTGCTG+CAGCACATGAAGCACGTCG ((((((((.(.((((((((+)))))))).).))))))))

>  <Tm [°C]>
50.3

$$$$
>  <substance>
CGACGTGCTGCATGTGCTG+CAGCACATTGCGCACGTCG ((((((((...((((((((+))))))))...))))))))

>  <Tm [°C]>
53.5

$$$$
